Test system: viral RNA polymerase
Assay: Potential inhibitors: Results Screen
Type: biochemical
Conditions: test concentration not given
Method: Compound stocks were prepared at a concentration of 1 mM in 65% DMSO, at a volume of 5 μL each.
So basically every entry gets a class from its Results Screen Median Screen (% inhibition), ranges being LOW = under 70 % inhibition, MID = from 70 % inhibition up to 80 % inhibition, HIGH = 80 % inhibition and over

Illustrative cases are given below, each with its answer.
Compound	Assigned Category
CC(=O)OC1CC2C(COC(=O)CC(C)C)=CO[C@H](OC(=O)CC(C)C)C2C12CO2 (some centres unmarked)	HIGH
COc1cc(O)c2c(c1)C(O)C(C)OC2=O (centres unmarked)	MID
CC1(C)CCC[C@@]2(C)[C@H]1[C@H](O)C=C1COC(=O)[C@]12O (racemic)	LOW
O=C(O)/C=C/c1ccccc1O[C@H]1O[C@@H](CO)[C@H](O)[C@@H](O)[C@@H]1O	HIGH
C[C@]1(C(=O)O)CC[C@@]2(C)CC[C@@]3(C)C4=CC(=O)c5cc(O)c(O)cc5[C@@]4(C)CC[C@]3(C)[C@H]2C1	MID

Problem: Lab log: `CCCCCCCC/C(=C/CC(=O)O)C(=O)O` — assign Results Screen Median Screen (% inhibition) category
Solution: HIGH

Problem: Now give it for CCCCC(C)C(=O)C(CC(C)CCCCCCC(O)CC(O)C(C)NC(C)=O)OC(=O)CC(CC(=O)O)C(=O)O (centres unmarked) too.
Solution: MID
